Biological target: human F508del-CFTR (Homo sapiens, UniProt P13569, DEL508-508)
Sequence (P13569 with tags, fused parts or gaps DEL508-508): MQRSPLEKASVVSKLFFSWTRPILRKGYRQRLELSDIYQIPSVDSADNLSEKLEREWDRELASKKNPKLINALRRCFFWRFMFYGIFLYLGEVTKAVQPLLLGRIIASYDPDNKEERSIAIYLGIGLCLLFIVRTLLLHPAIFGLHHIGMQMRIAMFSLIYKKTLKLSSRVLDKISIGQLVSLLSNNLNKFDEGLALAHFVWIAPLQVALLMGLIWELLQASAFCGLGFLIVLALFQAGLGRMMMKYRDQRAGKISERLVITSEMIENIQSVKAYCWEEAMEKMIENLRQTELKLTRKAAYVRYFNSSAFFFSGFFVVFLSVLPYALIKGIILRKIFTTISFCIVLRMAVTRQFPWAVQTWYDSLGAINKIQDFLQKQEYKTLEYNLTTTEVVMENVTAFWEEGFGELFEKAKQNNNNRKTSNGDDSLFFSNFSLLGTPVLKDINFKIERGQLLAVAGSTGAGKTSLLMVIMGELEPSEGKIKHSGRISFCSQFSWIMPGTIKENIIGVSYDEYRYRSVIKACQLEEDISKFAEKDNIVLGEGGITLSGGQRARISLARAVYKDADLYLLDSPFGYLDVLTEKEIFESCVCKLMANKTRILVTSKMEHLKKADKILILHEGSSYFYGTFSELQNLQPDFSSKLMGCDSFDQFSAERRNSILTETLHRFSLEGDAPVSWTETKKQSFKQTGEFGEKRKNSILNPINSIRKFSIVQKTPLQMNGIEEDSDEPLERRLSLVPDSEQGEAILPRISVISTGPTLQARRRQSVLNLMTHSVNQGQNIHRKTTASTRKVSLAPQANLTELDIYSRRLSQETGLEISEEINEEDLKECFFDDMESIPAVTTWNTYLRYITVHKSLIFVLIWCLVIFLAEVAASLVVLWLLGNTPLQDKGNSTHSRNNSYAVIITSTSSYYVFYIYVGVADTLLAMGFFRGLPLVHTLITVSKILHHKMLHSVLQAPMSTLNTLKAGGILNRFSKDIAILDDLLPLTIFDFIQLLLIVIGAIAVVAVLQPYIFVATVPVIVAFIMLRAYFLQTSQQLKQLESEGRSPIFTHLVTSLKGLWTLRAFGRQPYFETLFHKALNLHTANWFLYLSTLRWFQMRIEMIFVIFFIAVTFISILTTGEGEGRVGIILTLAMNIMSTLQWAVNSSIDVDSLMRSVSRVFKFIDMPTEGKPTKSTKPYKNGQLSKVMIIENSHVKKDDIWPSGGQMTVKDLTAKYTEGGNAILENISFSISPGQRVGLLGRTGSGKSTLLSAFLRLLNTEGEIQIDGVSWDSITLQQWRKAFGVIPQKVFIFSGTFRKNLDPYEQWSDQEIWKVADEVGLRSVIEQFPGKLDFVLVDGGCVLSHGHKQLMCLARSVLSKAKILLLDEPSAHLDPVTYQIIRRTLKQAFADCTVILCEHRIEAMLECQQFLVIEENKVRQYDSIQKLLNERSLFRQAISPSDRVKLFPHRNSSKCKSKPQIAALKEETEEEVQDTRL
Assay: F508del-CFTR cell surface expression (corrector activity), DiscoveRx ß-galactosidase complementation chemiluminescence assay in recombinant U2OS cell line;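 note: U2OS cells co-expressing ProLink-tagged F508del-CFTR and a membrane-anchored enzyme acceptor, where more surface CFTR restores β-galactosidase activity measured by chemiluminescence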
Details: U2OS, in relation to the Emax of the corrector lumacaftor (=100%); U2OS cell line, 16h compound incubation; arithmetic mean values
Use 200% as the dividing line for Emax, with the line itself on the 1 side and lower values as -1.

>  <smiles-str>
COc1cccc(CCNC(=O)[C@@H]2CC(=O)N(C)[C@@H](CC(C)C)C(=O)N3CCCC[C@@H]3C(=O)N[C@H](Cc3ccccc3)COc3ccc4ncn(C)c4c3C(=O)N2)c1

>  <discrete-label>
-1

$$$$
>  <smiles-str>
COc1cccc2c1C(=O)N[C@H](C(=O)NCCc1ccco1)CC(=O)N(C)[C@@H](CC(C)C)C(=O)N(CCC1CCCCC1)CC(=O)N[C@H](Cc1ccccc1)CO2

>  <discrete-label>
-1

$$$$
>  <smiles-str>
COc1cccc(CCNC(=O)[C@@H]2CC(=O)N(C)[C@@H](CC(C)C)C(=O)N(C)CC(=O)N[C@H](Cc3ccccc3)COc3ccc4c(c3C(=O)N2)OCO4)c1

>  <discrete-label>
1

$$$$
>  <smiles-str>
COc1nccc2c1C(=O)N[C@H](C(=O)NCCc1ccc3c(c1)OCO3)CC(=O)N(C)[C@@H](CC(C)C)C(=O)N(CCC1CCCCC1)CC(=O)N[C@H](Cc1ccccc1)CO2

>  <discrete-label>
1

$$$$
>  <smiles-str>
CC(C)C[C@H]1C(=O)N(C)C2(CC2)C(=O)N[C@H](Cc2ccccc2)COc2cnc3ccc(F)cc3c2C(=O)N[C@H](C(=O)NCCc2cccc(-c3ncccn3)c2)CC(=O)N1C

>  <discrete-label>
1

$$$$
